target: human FGFR2b extracellular domain (human, UniProt P21802); test: BLI
Sequence (P21802 22-377): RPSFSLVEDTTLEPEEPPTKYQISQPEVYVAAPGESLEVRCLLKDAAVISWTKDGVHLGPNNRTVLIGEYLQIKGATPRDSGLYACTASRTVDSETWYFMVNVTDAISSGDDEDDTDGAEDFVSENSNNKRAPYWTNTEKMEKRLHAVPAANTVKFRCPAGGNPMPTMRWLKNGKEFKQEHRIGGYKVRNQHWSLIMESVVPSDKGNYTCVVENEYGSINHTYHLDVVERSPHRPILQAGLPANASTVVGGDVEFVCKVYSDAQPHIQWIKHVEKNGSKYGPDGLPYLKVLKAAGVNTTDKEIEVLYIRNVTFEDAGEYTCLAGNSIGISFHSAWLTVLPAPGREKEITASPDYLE
TEST READOUT: Kd (nM)

{"columns": ["BINDER", "UNIT NAME", "VALUE OBSERVED"],
 "data": [
  ["2B1 (antibody, V domains shown) VH: EVQLQQSGAELVKPGASVKMSCKASGYTFASYNLHWVKQTPGQGLEWIGLIYPENGDTSYNQKFKGKATLTADKSSSTAYIQLSSLTSEDSAVYFCARGGFDYWGQGTSLTVSS VL: DIQMIQSPASLSVSVGETVTITCRASENIYSNLAWYQQKQGKSPQLLVYNAKTLADGVPSRFSGSGSGTQYSLKINSLQPEDFGSYYCQHFWSTPYTFGGGTKLEIK", "nM", 6.67],
  ["3H6 (antibody, V domains shown) VH: QVQLQQSGAELVKPGASVKMSCKASGYTFSFYNIHWVRQTPGQGLEWIGLIYPDNGDTSYNQKFKAKATLTADKSSSTAYMQLSSLTSEDSAVYYCARGGFDYWGQGTTLTVSS VL: DIQMTQSPASLSASVGETVTITCRASENIYSYLAWYQQKQGKSPQLLVYNAKTLAEGVPSRFSGSGSGTQFSLKINSLQPEDFGSYYCQHHYGTPYTFGGGTKLEMK", "nM", 8.41],
  ["1C10 (antibody, V domains shown) VH: QVQLQQSGAELVKPGASVKMSCKASGYTFRYYNMHWVKRTPGQGLEWIGLIYPDNGDTSYNQKFKGKATLTADTSSSTAYMQLSSLTSEDSAVYYCARGGLDYWGQGTSLTVSS VL: DIVMTQSPASLSASVGETVTITCRASGNIHNYLAWYQQKQGKSPQLLVYNAKTLADGVPSRFSGSGSGTQYSLKINSLQPEDFGSYYCQHFWSTPYTFGGGTKLEMK", "nM", 11.1],
  ["3F11 (antibody, V domains shown) VH: QVQLQQSGAELVKPGASVKMSCKASGYTFAPYNIHWVRQTPGQGLEWIGLIYPDNGDTSYNQKFKAKATLTADKSSSTAYMQLSSLTSEDSAVYYCARGGFDYWGQGTSLTVSS VL: DIVMTQSQKFMSTSVGDRVSVTCKASQNVGTNVAWYQQKPGQSPKALIYSASYRYSGVPDRFTGSGSGTDFTLTISNVQSEDLAEYFCQQHYSTPFTFGSGTKLEIK", "nM", 6.13],
  ["3H9 (antibody, V domains shown) VH: EIQLQQSGAELVKPGASVKMSCKASGYTFSFYNMHWVKRTPGQGLEWIGLIYPDNGDTSYNQKFKGKATLTADTSSSTAYMQLSSLTSEDSAVYYCARGGLDYWGQGTTLTVSS VL: DIVLTQSPASLSVSVGETVTITCRASENIYSNLAWYQQKQGKSPQLLVYAATNLADGVPSRFSGSGSGTQYSLKINSLQSEDFGSYYCQHFWGTPYTFGGGTKLELK", "nM", 5.69],
  ["3C9 (antibody, V domains shown) VH: EIQLQQSGAELVKPGASVKMSCKASGYIFRYYNMHWVKRTPGQGLEWIGLIYPDNGDTSYNQKFKGKATLTADTSSSTAYMQLSSLTSEDSAVYYCARGGLDYWGQGTTLTVSS VL: DIQMIQSPASLSASVGETVTITCGASENIYGALNWYQRKQGKSPQLLIYGATNLADGMSSRFSGSGSGRQYSLKISSLHPDDVATYYCQNVLSTPYTFGGGTKLEIK", "nM", 2.7],
  ["3C7 (antibody, V domains shown) VH: EIQLQQSGAELVKPGASVKMSCKASGYIFRNYYIHWVKRTPGQGLEWIGAIYPDNGDTSYNQRFKVKATLTADTSSSTAYMQLSSLTSEDSAVYYCARAFTYWGQGTTLTVSS VL: DIQMIQSPASLSASVGETVTITCGASENIYGALNWYQRKQGKSPQLLIYGATNLADGMSSRFSGSGSGRQYSLKISSLHPDDVATYYCQNVLSTPYTFGGGTKLEIK", "nM", 3.99],
  ["3D7 (antibody, V domains shown) VH: QVQLQQSGAELVKPGASVKMSCKASGYTFSFYNMHWVKRTPGRGLEWIGLIYPDNGDTSYNQKFKGKATLTADTSSSTAYMQLSSLTSEDSAVYYCARGGLDYWGQGTSLTVSS VL: EIVLTQSPASLAVSLGQRATISCKASQSVDYDGDSYMNWYQQKPGQPPKLLIYGISNRFSGVPDRFSGSGSGTDFTLKISTIKPEDLGMYYCLQGTHQPYTFGGGTKLEIK", "nM", 8.58]
]}
